experimental_system: BCRP (Homo sapiens, UniProt Q9UNQ0)
assay_text: bidirectional transport assay across hCMEC/D3 cell monolayer with or without Ko143
setup_conditions: human, pH 7.4, with Ko143 1 μM
test_readout: Papp B→A at 2 h, 600 μM (×10⁻⁶ cm/s)
Write the value in ×10⁻⁶ cm/s as a bare number.

The compound CCCC(CCC)C(=O)O on BCRP (Homo sapiens, UniProt Q9UNQ0): Papp B→A at 2 h, 600 μM was 0.37

* * *

experimental_system: BCRP (Homo sapiens, UniProt Q9UNQ0)
Sequence (Q9UNQ0 1-655): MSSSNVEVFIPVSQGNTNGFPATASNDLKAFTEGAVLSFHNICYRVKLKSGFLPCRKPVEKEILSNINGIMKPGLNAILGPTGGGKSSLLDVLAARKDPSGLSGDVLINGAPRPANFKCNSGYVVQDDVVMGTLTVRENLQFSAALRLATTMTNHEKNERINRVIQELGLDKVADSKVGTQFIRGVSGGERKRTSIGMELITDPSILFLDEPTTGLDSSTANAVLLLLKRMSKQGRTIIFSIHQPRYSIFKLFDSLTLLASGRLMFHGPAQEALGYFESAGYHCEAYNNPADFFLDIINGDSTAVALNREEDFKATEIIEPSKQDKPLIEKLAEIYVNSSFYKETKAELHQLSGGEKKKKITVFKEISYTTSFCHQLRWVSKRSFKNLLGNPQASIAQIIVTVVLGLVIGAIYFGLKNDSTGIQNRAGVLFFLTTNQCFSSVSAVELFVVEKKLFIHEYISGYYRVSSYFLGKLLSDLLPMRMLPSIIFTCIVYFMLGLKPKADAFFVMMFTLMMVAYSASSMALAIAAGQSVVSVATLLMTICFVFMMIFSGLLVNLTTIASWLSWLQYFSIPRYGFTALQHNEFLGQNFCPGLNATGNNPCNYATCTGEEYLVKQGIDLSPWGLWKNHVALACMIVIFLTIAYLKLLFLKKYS
assay_text: bidirectional transport assay across hCMEC/D3 cell monolayer with or without Ko143
setup_conditions: human, pH 7.4, with Ko143 1 µM, Efflux ratio (ER), hCMEC/D3 with inhibitor Ko143, 60 μM; hCMEC/D3 monolayer; 1 μM Ko143
test_readout: efflux ratio at 2 h, 60 µM
Could you respond with only the numeric value?

The compound CC1(C)O[C@@H]2[C@@H](CO[C@@]3(COS(N)(=O)=O)OC(C)(C)O[C@@H]23)O1 [TPM, topiramate] on BCRP (Homo sapiens, UniProt Q9UNQ0): efflux ratio at 2 h, 60 µM was 1.13

* * *

experimental_system: BCRP (Homo sapiens)
Sequence (Q9UNQ0 1-655): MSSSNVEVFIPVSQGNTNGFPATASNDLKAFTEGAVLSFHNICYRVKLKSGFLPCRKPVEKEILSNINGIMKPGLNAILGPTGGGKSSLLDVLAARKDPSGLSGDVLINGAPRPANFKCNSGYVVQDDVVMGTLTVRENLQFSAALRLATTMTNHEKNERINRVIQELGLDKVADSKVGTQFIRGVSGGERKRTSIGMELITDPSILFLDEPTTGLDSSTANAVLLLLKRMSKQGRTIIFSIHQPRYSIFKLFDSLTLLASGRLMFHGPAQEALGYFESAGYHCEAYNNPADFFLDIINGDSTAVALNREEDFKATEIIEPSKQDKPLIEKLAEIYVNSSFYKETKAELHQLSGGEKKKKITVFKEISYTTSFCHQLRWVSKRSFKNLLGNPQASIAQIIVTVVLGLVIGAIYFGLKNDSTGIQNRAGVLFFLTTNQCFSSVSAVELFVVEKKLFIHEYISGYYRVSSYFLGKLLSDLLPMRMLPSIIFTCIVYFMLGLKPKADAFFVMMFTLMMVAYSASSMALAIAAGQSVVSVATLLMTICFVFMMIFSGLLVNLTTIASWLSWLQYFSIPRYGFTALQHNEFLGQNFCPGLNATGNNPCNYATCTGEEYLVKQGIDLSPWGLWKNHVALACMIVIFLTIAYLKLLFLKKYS
assay_text: bidirectional transport assay across hCMEC/D3 cell monolayer with or without Ko143
setup_conditions: human, pH 7.4, with Ko143 1 μM
test_readout: Papp B→A at 2 h, 42 μM (×10⁻⁶ cm/s)
Write the value in ×10⁻⁶ cm/s as a bare number.

According to the records, this molecule NC(=O)N1c2ccccc2C=Cc2ccccc21 [CBZ, carbamazepine] displays Papp B→A at 2 h, 42 μM of 4.27

* * *

experimental_system: BCRP (Homo sapiens)
assay_text: bidirectional transport assay across hCMEC/D3 cell monolayer with or without Ko143
setup_conditions: human, pH 7.4, with Ko143 1 μM
test_readout: Papp A→B at 2 h, 60 µM (×10⁻⁶ cm/s)
Write the value in ×10⁻⁶ cm/s as a bare number.

According to the records, this molecule CC1(C)O[C@@H]2[C@@H](CO[C@@]3(COS(N)(=O)=O)OC(C)(C)O[C@@H]23)O1 [TPM, topiramate] displays Papp A→B at 2 h, 60 µM of 159

* * *

experimental_system: BCRP (Homo sapiens, UniProt Q9UNQ0)
Sequence (Q9UNQ0 1-655): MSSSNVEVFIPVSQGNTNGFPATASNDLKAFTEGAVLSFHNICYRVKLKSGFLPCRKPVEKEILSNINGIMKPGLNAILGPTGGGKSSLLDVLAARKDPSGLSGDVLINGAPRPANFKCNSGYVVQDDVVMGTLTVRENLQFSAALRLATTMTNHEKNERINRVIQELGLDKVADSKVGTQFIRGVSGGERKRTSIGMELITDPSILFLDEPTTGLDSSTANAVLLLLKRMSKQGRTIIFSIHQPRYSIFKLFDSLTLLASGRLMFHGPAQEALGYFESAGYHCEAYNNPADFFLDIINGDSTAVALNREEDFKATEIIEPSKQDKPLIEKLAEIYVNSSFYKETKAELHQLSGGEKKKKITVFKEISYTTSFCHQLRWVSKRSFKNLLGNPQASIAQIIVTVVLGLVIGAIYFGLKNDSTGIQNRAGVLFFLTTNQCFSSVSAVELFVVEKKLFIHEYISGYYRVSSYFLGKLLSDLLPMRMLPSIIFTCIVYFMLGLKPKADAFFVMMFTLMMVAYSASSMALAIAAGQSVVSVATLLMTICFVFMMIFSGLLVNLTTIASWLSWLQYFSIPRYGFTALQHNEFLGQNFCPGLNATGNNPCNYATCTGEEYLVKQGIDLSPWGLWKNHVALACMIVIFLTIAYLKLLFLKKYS
assay_text: bidirectional transport assay across hCMEC/D3 cell monolayer with or without Ko143
setup_conditions: human, pH 7.4
Description: For transport assays, hCMEC/D3 cells were seeded on collagen type I‐coated Transwell inserts (polycarbonate 12‐well, pore size […]) (cat. no. CLS3460; Corning, NY, USA) at 80% confluency and cultured as described in section 2.5. […] Concentrations of ASMs were evaluated by HPLC or LC/MS. […] Fluorescence detection of lucifer yellow (excitation at 430 nm, and emission at 535 nm) was carried out with Infinite 200 PRO NanoQuant (Tecan, Zurich, Switzerland). […]
test_readout: Papp A→B at 2 h, 15 µM (×10⁻⁶ cm/s)
Write the value in ×10⁻⁶ cm/s as a bare number.

According to the records, this compound CC1(C)O[C@@H]2[C@@H](CO[C@@]3(COS(N)(=O)=O)OC(C)(C)O[C@@H]23)O1 [TPM, topiramate] displays Papp A→B at 2 h, 15 µM of 0.71

* * *

experimental_system: BCRP (Homo sapiens, UniProt Q9UNQ0)
Sequence (Q9UNQ0 1-655): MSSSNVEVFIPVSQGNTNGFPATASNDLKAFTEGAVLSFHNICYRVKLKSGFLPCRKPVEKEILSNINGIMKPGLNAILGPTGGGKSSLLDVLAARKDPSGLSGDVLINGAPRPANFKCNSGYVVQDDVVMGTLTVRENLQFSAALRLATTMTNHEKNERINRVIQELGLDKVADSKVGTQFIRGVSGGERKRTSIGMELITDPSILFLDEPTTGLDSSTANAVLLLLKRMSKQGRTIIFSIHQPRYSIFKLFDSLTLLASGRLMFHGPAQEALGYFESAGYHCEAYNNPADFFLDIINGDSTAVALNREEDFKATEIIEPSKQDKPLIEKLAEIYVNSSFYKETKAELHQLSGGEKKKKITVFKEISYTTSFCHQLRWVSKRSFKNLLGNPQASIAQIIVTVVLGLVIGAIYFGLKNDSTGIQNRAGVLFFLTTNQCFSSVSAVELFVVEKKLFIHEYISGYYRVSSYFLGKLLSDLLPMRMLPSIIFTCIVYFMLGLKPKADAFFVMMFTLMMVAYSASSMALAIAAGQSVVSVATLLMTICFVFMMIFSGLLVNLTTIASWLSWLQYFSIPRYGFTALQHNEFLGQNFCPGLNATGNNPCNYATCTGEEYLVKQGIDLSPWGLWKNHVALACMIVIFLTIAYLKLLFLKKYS
assay_text: bidirectional transport assay across hCMEC/D3 cell monolayer with or without Ko143
setup_conditions: human, pH 7.4
test_readout: Papp B→A at 2 h, 25 µM (×10⁻⁶ cm/s)
Write the value in ×10⁻⁶ cm/s as a bare number.

The molecule NC(=O)N1c2ccccc2CC(=O)c2ccccc21 [OXC, oxcarbazepine] on BCRP (Homo sapiens, UniProt Q9UNQ0): Papp B→A at 2 h, 25 µM was 4.72
